List of OD value values.
Molecular target: T1, human Nectin-4 extracellular antigen hNectin-4-His (human, UniProt Q96NY8 32-349)
T1 construct: C-terminal 8xHis tag included
T1 sequence: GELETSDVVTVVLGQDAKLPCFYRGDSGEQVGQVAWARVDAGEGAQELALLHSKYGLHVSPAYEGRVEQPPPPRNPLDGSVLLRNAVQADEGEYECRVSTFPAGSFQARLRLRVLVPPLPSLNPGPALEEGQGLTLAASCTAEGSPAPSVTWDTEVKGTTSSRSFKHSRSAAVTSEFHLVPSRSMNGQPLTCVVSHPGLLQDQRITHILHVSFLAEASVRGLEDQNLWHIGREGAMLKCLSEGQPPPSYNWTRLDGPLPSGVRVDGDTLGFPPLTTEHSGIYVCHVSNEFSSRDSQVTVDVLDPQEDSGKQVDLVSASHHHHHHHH
Test: ELISA, phage scFv supernatant 1:50
Provide only the numeric value, understood in OD.

// known answers, use as guide
| binder | measurement units | OD value |
| --- | --- | --- |
| 1F3-1D6 scFv (scFv, V domains shown, phage clone supernatant) VH: EVQLVESGGGLVQPGGSLRLSCAASGGSFYGFGMSWVRQAPGKGLEWVSGIYSHDADKRYADSVKGRFTISRDNSKNTLYLQMNSLRAEDTAVYYCARAELLAFDVYTASDYWGQGTLVTVSS VL: DIQMTQSPSSLSASVGDRVTITCRASQGISSYLAWYQQKPGKAPKLLIYAASSLQSGVPSRFSGSGSGTDFTLTISSLQPEDFATYYCQQHYTTPPTFGQGTKVEIKR | OD | 1.44 |
| 10F4-2E6 scFv (scFv, V domains shown, phage clone supernatant) VH: EVQLVESGGGLVQPGGSLRLSCAASGFSFGDYWMSWVRQAPGKGLEWVSAIDQGKATSFYADSVKGRFTISRDNSKNTLYLQMNSLRAEDTAVYYCAREYSDVVDYVSVRTPLDYWGQGTLVTVSS VL: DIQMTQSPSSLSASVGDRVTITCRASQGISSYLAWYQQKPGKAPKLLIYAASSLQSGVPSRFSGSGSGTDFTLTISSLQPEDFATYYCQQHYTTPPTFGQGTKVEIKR | OD | 1.45 |
| 1F3-1F4 scFv (scFv, V domains shown, phage clone supernatant) VH: EVQLVESGGGLVQPGGSLRLSCAASGDIFTGSSMSWVRQAPGKGLEWVSGIYASGSDKRYADSVKGRFTISRDNSKNTLYLQMNSLRAEDTAVYYCARAELLAFDVYTASDYWGQGTLVTVSS VL: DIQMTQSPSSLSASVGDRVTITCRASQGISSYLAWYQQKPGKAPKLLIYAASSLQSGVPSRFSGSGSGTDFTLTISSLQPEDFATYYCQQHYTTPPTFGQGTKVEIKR | OD | 1.42 |
| 10F4-1H11 scFv (scFv, V domains shown, phage clone supernatant) VH: EVQLVESGGGLVQPGGSLRLSCAASGYTFTGFWMSWVRQAPGKGLEWVSSISPDSGTKHYADSVKGRFTISRDNSKNTLYLQMNSLRAEDTAVYYCAREYSDVVDYVSVRTPLDYWGQGTLVTVSS VL: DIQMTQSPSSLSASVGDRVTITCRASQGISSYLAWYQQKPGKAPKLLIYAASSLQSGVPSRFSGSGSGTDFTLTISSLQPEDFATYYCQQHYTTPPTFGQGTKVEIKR | OD | 1.56 |

Let us move to another entry and its OD value.
Which OD value reading was recorded for the binder 1G8-1C1 scFv (scFv, V domains shown, phage clone supernatant) VH: EVQLVESGGGLVQPGGSLRLSCAASGYIFSNYAMSWVRQAPGKGLEWVSRISTGFAGPDYADSVKGRFTISRDNSKNTLYLQMNSLRAEDTAVYYCARQTEDRSYGYDLDYWGQGTLVTVSS VL: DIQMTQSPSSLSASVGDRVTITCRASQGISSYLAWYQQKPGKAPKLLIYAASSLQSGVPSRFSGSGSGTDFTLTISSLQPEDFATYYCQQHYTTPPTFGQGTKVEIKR ?
1.5
